# TARGET_DESC: mouse Tas2r144 (Mus musculus)
# Construct: expressed in transfected cells; host or cells: HEK293T-Gα16gust44
# Sequence (Q7TQB8 whole entry): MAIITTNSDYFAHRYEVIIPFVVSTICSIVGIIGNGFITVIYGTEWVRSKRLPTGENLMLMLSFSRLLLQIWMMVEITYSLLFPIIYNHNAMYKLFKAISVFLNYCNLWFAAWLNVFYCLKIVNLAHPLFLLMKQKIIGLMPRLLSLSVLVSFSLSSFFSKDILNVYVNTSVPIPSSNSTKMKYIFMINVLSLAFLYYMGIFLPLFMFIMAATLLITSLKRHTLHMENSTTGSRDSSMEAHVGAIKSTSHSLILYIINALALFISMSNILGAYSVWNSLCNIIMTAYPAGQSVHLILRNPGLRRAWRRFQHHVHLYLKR
# ASSAY_NOTES: Calcium imaging assay (FLIPR), HEK293T-Gα16gust44 cells transfected with mouse Tas2r144
# Assay type: cell-based
# MEASUREMENT_PARAMETERS: Time 124.781 s
READOUT_KIND: RLU (RLU)
Dear colleague, please return just the value in RLU, with no unit written.

What measured RLU goes with C[C@H](CCC(=O)NCC(=O)O)[C@H]1CC[C@H]2[C@@H]3[C@H](O)C[C@@H]4C[C@H](O)CC[C@]4(C)[C@H]3C[C@H](O)[C@]12C [Glycocholic Acid, glycocholic acid] ? 278.403

What measured RLU goes with C[C@H](CCC(=O)NCCS(=O)(=O)O)[C@H]1CC[C@H]2[C@@H]3[C@H](O)C[C@@H]4C[C@H](O)CC[C@]4(C)[C@H]3C[C@H](O)[C@]12C [Taurocholic Acid, taurocholic acid] ? 466.738

What measured RLU goes with C[C@H](CCC(=O)NCCS(=O)(=O)O)[C@H]1CC[C@H]2[C@@H]3CC[C@@H]4C[C@H](O)CC[C@]4(C)[C@H]3CC[C@]12C [Taurolithocholic Acid, taurolithocholic acid] ? 373.746

What measured RLU goes with C[C@H](CCC(=O)O)[C@H]1CC[C@H]2[C@@H]3[C@H](O)C[C@@H]4C[C@H](O)CC[C@]4(C)[C@H]3C[C@H](O)[C@]12C [Cholic Acid, cholic acid] ? 392.828
